# Organism: Homo sapiens
# TEST_SUMMARY: Liver toxicity in human assessed as induction of drug-induced liver injury by measuring verified drug-induced liver injury concern status
ASSAY_READOUT: DILI_Concern

LANTHANUM CARBONATE ... No-Dili-Concern
IVERMECTIN ... Less-Dili-Concern
VITAMIN E ... No-Dili-Concern
SIMETHICONE ... No-Dili-Concern
POLYMYXIN B SULFATE ... No-Dili-Concern
H-SEEPPISLDLTFHLLREVLEMARAEQLAQQAHSNRKMLEII-OH ... No-Dili-Concern
VERTEPORFIN ... Ambiguous-Dili-Concern
SEVELAMER ... No-Dili-Concern
NYSTATIN ... No-Dili-Concern
GALLIUM NITRATE ... Ambiguous-Dili-Concern
BIVALIRUDIN ... No-Dili-Concern
CUPRIC CHLORIDE ... No-Dili-Concern
DALTEPARIN SODIUM ... Less-Dili-Concern
BLEOMYCIN ... Ambiguous-Dili-Concern
SECRETIN ... No-Dili-Concern

====

# Organism: Homo sapiens
# TEST_SUMMARY: Liver toxicity in human assessed as induction of drug-induced liver injury by measuring verified drug-induced liver injury concern status
ASSAY_READOUT: DILI_Concern

O=c1[nH]c(=O)n([C@@H]2O[C@H](CO)[C@@H](O)[C@@H]2F)cc1I [FIALURIDINE] ... Most-Dili-Concern
CN[C@@H](C)[C@H](O)c1ccccc1 [EPHEDRINE] ... No-Dili-Concern
CCCC(=O)OCOC(=O)C1=C(C)NC(C)=C(C(=O)OC)C1c1cccc(Cl)c1Cl (centres undefined) [CLEVIDIPINE] ... No-Dili-Concern
CC(C(=O)O)c1ccc2oc(-c3ccc(Cl)cc3)nc2c1 (centres undefined) [BENOXAPROFEN] ... Most-Dili-Concern
Clc1ccc2nsnc2c1NC1=NCCN1 [TIZANIDINE] ... Most-Dili-Concern
O=C(OCC(O)CO)c1ccccc1Nc1ccnc2cc(Cl)ccc12 (centres undefined) [GLAFENINE] ... Most-Dili-Concern
CNC(=O)c1cnn(-c2nc(N)c3ncn([C@@H]4O[C@H](CO)[C@@H](O)[C@H]4O)c3n2)c1 [REGADENOSON ANHYDROUS] ... No-Dili-Concern

====

# Organism: Homo sapiens
# TEST_SUMMARY: Liver toxicity in human assessed as induction of drug-induced liver injury by measuring severity class index
ASSAY_READOUT: DILI_severity_class

Clc1cccc(Cl)c1N=C1NCCN1 ... 3
CNC1(C)C2CCC(C2)C1(C)C (stereo unspecified) ... 0
C[N+](C)(C)CCOC(=O)CCC(=O)OCC[N+](C)(C)C ... 0
CC(C(=O)O)c1ccc2oc(-c3ccc(Cl)cc3)nc2c1 (stereo unspecified) ... 8
C[C@H](CCC(=O)O)[C@H]1CC[C@H]2[C@@H]3[C@@H](O)C[C@@H]4C[C@H](O)CC[C@]4(C)[C@H]3CC[C@]12C ... 0
CCOC(=O)c1cncn1[C@H](C)c1ccccc1 [ETOMIDATE] ... 0
Nc1nc2ncc(CNc3ccc(C(=O)N[C@@H](CCC(=O)O)C(=O)O)cc3)nc2c(=O)[nH]1 ... 0
CC(=O)Nc1c(I)c(NC(C)=O)c(I)c(C(=O)O)c1I ... 0
CC1=C(C(=O)O)N2C(=O)[C@@H](NC(=O)[C@H](N)C3=CCC=CC3)[C@H]2SC1 ... 4
CC(C)NCC(O)COc1ccc(CC(N)=O)cc1 (stereo unspecified) ... 4
CC(C)[N+](C)(CCOC(=O)C1c2ccccc2Oc2ccccc21)C(C)C ... 0
CC(C)OC(=O)C(C)(C)Oc1ccc(C(=O)c2ccc(Cl)cc2)cc1 [FENOFIBRATE] ... 3
CC(=O)O[C@H]1C(=O)[C@@]2(C)[C@H]([C@H](OC(=O)c3ccccc3)[C@]3(O)C[C@H](OC(=O)[C@H](O)[C@@H](NC(=O)c4ccccc4)c4ccccc4)C(C)=C1C3(C)C)[C@]1(OC(C)=O)CO[C@@H]1C[C@@H]2O ... 4
CO[C@@]1(NC(=O)C2SC(=C(C(N)=O)C(=O)O)S2)C(=O)N2C(C(=O)O)=C(CSc3nnnn3C)CS[C@@H]21 (stereo partly specified) ... 3
CC(CCc1ccc(O)cc1)NCCc1ccc(O)c(O)c1 (stereo unspecified) ... 0
CN(C)c1ccc(O)c2c1C[C@H]1C[C@H]3[C@H](N(C)C)C(O)=C(C(N)=O)C(=O)[C@@]3(O)C(O)=C1C2=O ... 8

Ref: ChEMBL document CHEMBL4028802
